The entries below are paired with their reported EC50.
System tested: TLR8 (Homo sapiens)
Sequence (Q9NR97 27-1041): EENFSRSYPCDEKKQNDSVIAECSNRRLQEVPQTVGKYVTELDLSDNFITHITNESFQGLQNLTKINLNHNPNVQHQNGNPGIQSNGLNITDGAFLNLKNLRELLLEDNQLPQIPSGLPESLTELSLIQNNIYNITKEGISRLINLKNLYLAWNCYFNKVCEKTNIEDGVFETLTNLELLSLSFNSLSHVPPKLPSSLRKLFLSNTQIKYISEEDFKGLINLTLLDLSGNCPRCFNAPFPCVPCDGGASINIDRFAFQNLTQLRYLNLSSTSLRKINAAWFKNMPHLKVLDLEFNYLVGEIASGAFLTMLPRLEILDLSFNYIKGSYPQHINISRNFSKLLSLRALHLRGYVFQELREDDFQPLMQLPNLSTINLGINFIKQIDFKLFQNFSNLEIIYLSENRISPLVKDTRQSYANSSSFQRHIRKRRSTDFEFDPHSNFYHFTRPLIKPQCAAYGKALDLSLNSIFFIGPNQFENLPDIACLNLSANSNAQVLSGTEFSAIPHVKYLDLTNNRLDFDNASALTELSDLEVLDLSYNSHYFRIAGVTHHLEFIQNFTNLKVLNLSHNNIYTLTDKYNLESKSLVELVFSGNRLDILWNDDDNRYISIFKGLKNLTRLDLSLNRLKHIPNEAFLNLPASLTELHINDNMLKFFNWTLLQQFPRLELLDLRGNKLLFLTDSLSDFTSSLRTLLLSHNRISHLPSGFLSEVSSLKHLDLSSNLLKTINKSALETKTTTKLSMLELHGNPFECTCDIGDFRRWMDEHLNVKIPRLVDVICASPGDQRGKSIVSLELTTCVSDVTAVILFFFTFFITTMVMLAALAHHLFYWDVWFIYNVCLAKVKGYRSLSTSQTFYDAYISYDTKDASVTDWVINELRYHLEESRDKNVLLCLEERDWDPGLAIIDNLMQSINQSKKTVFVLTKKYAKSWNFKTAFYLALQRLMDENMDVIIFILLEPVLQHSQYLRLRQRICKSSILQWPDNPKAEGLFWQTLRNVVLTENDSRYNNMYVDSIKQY
Assay remarks: PBMC assay for TLR8 (TNFα in supernatants by ELISA)
Format: cell-based
Parameters: Peripheral blood mononuclear cells (PBMCs) from human blood were isolated; endogenous in cells; host or cells: human PBMCs
Protocol conditions: human PBMCs incubated with compound overnight, MC50 = concentration at which 50% of the maximum induction is seen
Measurement name: EC50

>  <Sample smiles>
CCCN(CCC)C(=O)C1=Cc2ccc(-c3cncnc3)cc2N=C(N)C1

>  <System tested>
TLR8 (Homo sapiens)

>  <Measured value>
1 to 100 nM

$$$$
>  <Sample smiles>
CCCN(CCCF)C(=O)C1=Cc2ccc(-c3ccc(C(=O)N4CCCC4)cc3)cc2N=C(N)C1

>  <System tested>
TLR8 (Homo sapiens)

>  <Measured value>
100 to 1000 nM

$$$$
>  <Sample smiles>
CCOC(=O)C1=Cc2ccc(-c3cncnc3)cc2N=C(N)C1

>  <System tested>
TLR8 (Homo sapiens)

>  <Measured value>
1 to 100 nM

$$$$
>  <Sample smiles>
CCCN(CCC)C(=O)C1=Cc2ccc(-c3ccc(C(=O)OCOCC)cc3)cc2N=C(N)C1

>  <System tested>
TLR8 (Homo sapiens)

>  <Measured value>
1000 to 10000 nM

$$$$
>  <Sample smiles>
CCCN(CCCF)C(=O)C1=Cc2ccc(-c3ccc(C(=O)OCC)cc3)cc2N=C(N)C1

>  <System tested>
TLR8 (Homo sapiens)

>  <Measured value>
1000 to 10000 nM

$$$$
>  <Sample smiles>
NC1=Nc2cc(-c3ccc(C(=O)N4CCCC4)cc3)ccc2C=C(C(=O)N2CCCCC2)C1

>  <System tested>
TLR8 (Homo sapiens)

>  <Measured value>
1000 to 10000 nM

$$$$
>  <Sample smiles>
CCOC(=O)C1=Cc2ccc(-c3ccc(C#N)cc3)cc2N=C(N)C1

>  <System tested>
TLR8 (Homo sapiens)

>  <Measured value>
100 to 1000 nM

$$$$
>  <Sample smiles>
CCCN(CCC)C(=O)C1=Cc2ccc(-c3ccncc3)cc2N=C(N)C1

>  <System tested>
TLR8 (Homo sapiens)

>  <Measured value>
100 to 1000 nM

$$$$
>  <Sample smiles>
CCCN(CCC)C(=O)C1=Cc2ccc(-c3cccc(O)c3)cc2N=C(N)C1

>  <System tested>
TLR8 (Homo sapiens)

>  <Measured value>
100 to 1000 nM

$$$$
>  <Sample smiles>
CCCN(CCC)C(=O)C1=Cc2ccc(-c3cccc(C(=O)N(C)C)c3)cc2N=C(N)C1

>  <System tested>
TLR8 (Homo sapiens)

>  <Measured value>
1 to 100 nM

$$$$
>  <Sample smiles>
CCCN(CCCO)C(=O)C1=Cc2ccc(-c3ccc(C(=O)N4CCCC4)cc3)cc2N=C(N)C1

>  <System tested>
TLR8 (Homo sapiens)

>  <Measured value>
1 to 100 nM

$$$$
>  <Sample smiles>
CCCN(CCC)C(=O)C1=Cc2ccc(-c3ccc(C(=O)N4CC[C@H](O)C4)cc3)cc2N=C(N)C1

>  <System tested>
TLR8 (Homo sapiens)

>  <Measured value>
1 to 100 nM

$$$$
>  <Sample smiles>
CCOC(=O)C1=Cc2ccc(-c3ccncc3)cc2N=C(N)C1

>  <System tested>
TLR8 (Homo sapiens)

>  <Measured value>
1 to 100 nM

$$$$

src = patent US8524702B2
